Recorded values, source patent US20210255193A1.

molecular target: HK1 Hexokinase-1 (Homo sapiens); construct: isoTOP-ABPP experiments performed in cell lysates (in vitro); endogenous in cells; host or cells: soluble proteome of human cancer cell lines (MDA-MB-231; Ramos and Jurkat also prepared); experiment: competitive isoTOP-ABPP; format: binding; settings: P19367_K510; 50 uM, 231 sol, in vitro
Sequence (P19367 whole entry, the tested form may be a part): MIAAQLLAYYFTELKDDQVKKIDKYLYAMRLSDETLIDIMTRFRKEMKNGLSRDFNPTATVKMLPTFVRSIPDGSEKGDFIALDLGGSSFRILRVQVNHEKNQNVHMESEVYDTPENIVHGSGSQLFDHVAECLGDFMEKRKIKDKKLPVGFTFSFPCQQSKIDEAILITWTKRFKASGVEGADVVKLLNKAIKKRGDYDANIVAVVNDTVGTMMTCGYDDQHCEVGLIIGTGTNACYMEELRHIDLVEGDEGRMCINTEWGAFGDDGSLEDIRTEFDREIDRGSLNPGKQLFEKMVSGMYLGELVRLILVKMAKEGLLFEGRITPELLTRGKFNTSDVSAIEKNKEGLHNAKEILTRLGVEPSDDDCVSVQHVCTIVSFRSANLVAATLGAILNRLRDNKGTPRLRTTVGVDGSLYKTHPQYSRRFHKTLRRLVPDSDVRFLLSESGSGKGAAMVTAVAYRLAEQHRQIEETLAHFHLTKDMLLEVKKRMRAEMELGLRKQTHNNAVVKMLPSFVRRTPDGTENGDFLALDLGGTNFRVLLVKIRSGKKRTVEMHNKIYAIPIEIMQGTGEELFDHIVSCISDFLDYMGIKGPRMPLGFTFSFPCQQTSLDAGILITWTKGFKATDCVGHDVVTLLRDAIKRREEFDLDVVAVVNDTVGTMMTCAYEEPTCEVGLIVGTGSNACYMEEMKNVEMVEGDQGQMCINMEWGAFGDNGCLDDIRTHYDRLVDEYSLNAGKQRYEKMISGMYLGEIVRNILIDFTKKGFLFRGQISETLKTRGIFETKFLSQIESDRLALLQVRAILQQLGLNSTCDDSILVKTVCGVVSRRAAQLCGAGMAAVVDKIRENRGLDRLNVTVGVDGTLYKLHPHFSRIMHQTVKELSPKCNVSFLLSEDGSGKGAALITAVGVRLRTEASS
Observed Property: R value (DMSO/fragment) for probe 1 labeling

A. O=C(CCc1cn(-c2ccccc2)nc1-c1ccccc1)Oc1c(F)c(F)c(F)c(F)c1F [fragment 19]
B. COc1cc(CCC(=O)Oc2c(F)c(F)c(F)c(F)c2F)cc(OC)c1OC [fragment 23]
// which entry reports the smaller R value (DMSO/fragment) for probe 1 labeling, A or B ? Return value: the label identifying the chosen record.
A
(A: 1.2, B: 2.0)

* * *

Reported isoTOP-ABPP reactivity ratio at lysine Q8TCA0_K43 values for the following compounds.
Molecular target: LRRC20 Leucine-rich repeat-containing protein 20 (Homo sapiens)
Construct: isoTOP-ABPP experiments performed in cell lysates (in vitro); endogenous in cells; host or cells: soluble proteome of human cancer cell lines (MDA-MB-231; Ramos and Jurkat also prepared)
Sequence (Q8TCA0 1-184): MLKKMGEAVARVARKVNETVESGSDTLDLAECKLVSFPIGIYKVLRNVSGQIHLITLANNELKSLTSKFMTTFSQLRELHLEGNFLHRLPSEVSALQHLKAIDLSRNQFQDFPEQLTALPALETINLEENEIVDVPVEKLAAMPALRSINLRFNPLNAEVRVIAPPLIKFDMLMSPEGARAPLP
Experiment: competitive isoTOP-ABPP
Format: binding
Settings: 50 uM, 231 sol, in vitro
# print the numeric value only

Some compounds with recorded isoTOP-ABPP reactivity ratio at lysine Q8TCA0_K43:
[
  {
    "Compound": "Cn1cc(CC(=O)Oc2ccc([N+](=O)[O-])cc2[N+](=O)[O-])c2ccccc21",
    "Study System": "LRRC20 Leucine-rich repeat-containing protein 20 (Homo sapiens)",
    "Observed Value": 1.6
  },
  {
    "Compound": "O=C(Oc1ccc([N+](=O)[O-])cc1[N+](=O)[O-])C(c1ccccc1)c1ccccc1 [fragment 30, 2,4-Dinitrophenyl 2,2-diphenylacetate]",
    "Study System": "LRRC20 Leucine-rich repeat-containing protein 20 (Homo sapiens)",
    "Observed Value": 1.5
  },
  {
    "Compound": "O=C(CCc1cn(-c2ccccc2)nc1-c1ccccc1)Oc1ccc([N+](=O)[O-])cc1[N+](=O)[O-]",
    "Study System": "LRRC20 Leucine-rich repeat-containing protein 20 (Homo sapiens)",
    "Observed Value": 1.3
  }
]

The record that follows has no isoTOP-ABPP reactivity ratio at lysine Q8TCA0_K43 shown yet.
Read the entry `O=C(CCc1coc2cc(F)ccc2c1=O)Oc1c(F)c(F)c(F)c(F)c1F` and write its reported isoTOP-ABPP reactivity ratio at lysine Q8TCA0_K43.
0.8

* * *

biological target: NAA25 N-alpha-acetyltransferase 25, NatB auxiliary subunit (Homo sapiens, UniProt Q14CX7); construct: isoTOP-ABPP experiments performed in cell lysates (in vitro); endogenous in cells; host or cells: soluble proteome of human cancer cell lines (MDA-MB-231; Ramos and Jurkat also prepared); assay: competitive isoTOP-ABPP; format: binding; conditions: 50 uM, 231 sol, in vitro
Sequence (Q14CX7 whole entry): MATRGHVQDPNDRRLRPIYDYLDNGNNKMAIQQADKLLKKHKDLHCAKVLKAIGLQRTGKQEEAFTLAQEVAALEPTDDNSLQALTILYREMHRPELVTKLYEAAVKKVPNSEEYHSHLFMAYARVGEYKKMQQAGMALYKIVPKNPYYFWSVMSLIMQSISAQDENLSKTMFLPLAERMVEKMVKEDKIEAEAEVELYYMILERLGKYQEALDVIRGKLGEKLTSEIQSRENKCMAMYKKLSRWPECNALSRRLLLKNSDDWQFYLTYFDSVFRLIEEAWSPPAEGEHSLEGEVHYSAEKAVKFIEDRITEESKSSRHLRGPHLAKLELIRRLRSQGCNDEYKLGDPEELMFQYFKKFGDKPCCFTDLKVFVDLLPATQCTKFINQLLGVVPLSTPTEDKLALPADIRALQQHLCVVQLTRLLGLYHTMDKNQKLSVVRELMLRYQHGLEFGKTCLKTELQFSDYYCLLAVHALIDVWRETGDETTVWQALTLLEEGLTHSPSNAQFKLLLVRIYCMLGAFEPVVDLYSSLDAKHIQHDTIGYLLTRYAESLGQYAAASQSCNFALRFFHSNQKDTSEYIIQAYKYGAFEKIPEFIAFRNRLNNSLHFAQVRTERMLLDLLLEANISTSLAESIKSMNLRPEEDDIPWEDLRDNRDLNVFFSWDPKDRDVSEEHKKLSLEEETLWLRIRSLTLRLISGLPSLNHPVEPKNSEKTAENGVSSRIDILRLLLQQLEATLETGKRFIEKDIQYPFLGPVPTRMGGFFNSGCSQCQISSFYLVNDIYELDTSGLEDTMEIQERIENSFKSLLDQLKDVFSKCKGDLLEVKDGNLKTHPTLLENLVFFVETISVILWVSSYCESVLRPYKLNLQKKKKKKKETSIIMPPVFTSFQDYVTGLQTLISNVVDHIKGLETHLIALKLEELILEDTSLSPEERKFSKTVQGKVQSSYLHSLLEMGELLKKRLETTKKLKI
Observed Property: isoTOP-ABPP reactivity ratio at lysine Q14CX7_K575

[
  {
    "Molecule": "O=C(CCc1coc2cc(F)ccc2c1=O)Oc1c(F)c(F)c(F)c(F)c1F",
    "Observed Value": 0.9
  },
  {
    "Molecule": "O=C(Oc1c(F)c(F)c(F)c(F)c1F)C1CCN(C(=O)OCc2ccccc2)CC1",
    "Observed Value": 1.1
  },
  {
    "Molecule": "O=C(Oc1c(F)c(F)c(F)c(F)c1F)c1ccc2ccccc2n1",
    "Observed Value": 0.9
  }
]

* * *

Target: FECH Ferrochelatase, mitochondrial (Homo sapiens, UniProt P22830)
Construct: isoTOP-ABPP experiments performed in cell lysates (in vitro); endogenous in cells; host or cells: soluble proteome of human cancer cell lines (MDA-MB-231; Ramos and Jurkat also prepared)
Sequence (P22830 55-423): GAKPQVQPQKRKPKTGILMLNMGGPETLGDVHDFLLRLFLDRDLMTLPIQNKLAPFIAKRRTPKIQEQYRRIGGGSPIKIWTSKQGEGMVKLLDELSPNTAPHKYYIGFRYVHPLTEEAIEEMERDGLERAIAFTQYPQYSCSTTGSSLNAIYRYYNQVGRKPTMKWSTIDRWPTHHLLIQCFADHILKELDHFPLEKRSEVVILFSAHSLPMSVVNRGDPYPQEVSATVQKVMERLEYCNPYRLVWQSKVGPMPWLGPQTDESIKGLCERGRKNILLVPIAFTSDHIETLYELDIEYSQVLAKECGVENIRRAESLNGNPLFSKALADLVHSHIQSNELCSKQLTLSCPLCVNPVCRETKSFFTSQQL
Assay: competitive isoTOP-ABPP
Format: binding
Settings: 50 uM, in vitro, sol, 231
Reported isoTOP-ABPP ratio (R) at liganded lysine P22830_K304 values for the following compounds.
# print the numeric value only

[
  {
    "Compound": "CC(=O)Oc1ccc([N+](=O)[O-])cc1[N+](=O)[O-] [fragment 43, 2,4-Dinitrophenyl acetate]",
    "Observed Value": 1.3
  },
  {
    "Compound": "O=C(Oc1ccc([N+](=O)[O-])cc1[N+](=O)[O-])C(c1ccccc1)(c1ccccc1)c1ccccc1 [fragment 42, 2,4-Dinitrophenyl 2,2,2-triphenylacetate]",
    "Observed Value": 1.0
  },
  {
    "Compound": "O=C(CC12CC3CC(CC(C3)C1)C2)Oc1ccc([N+](=O)[O-])cc1[N+](=O)[O-] [fragment 38]",
    "Observed Value": 1.8
  }
]

Read the entry O=C(Oc1ccc([N+](=O)[O-])cc1[N+](=O)[O-])c1ccc(Oc2ccccc2)cc1 [fragment 39, 2,4-Dinitrophenyl 4-phenoxybenzoate] and write its reported isoTOP-ABPP ratio (R) at liganded lysine P22830_K304.
1.3

Read the entry O=C(CCc1coc2cc(F)ccc2c1=O)Oc1ccc([N+](=O)[O-])cc1[N+](=O)[O-] [fragment 36] and write its reported isoTOP-ABPP ratio (R) at liganded lysine P22830_K304.
2.0

* * *

Target: CPOX Coproporphyrinogen-III oxidase, mitochondrial (Homo sapiens)
Construct: isoTOP-ABPP experiments performed in cell lysates (in vitro); endogenous in cells; host or cells: soluble proteome of human cancer cell lines (MDA-MB-231; Ramos and Jurkat also prepared)
Sequence (P36551 111-454): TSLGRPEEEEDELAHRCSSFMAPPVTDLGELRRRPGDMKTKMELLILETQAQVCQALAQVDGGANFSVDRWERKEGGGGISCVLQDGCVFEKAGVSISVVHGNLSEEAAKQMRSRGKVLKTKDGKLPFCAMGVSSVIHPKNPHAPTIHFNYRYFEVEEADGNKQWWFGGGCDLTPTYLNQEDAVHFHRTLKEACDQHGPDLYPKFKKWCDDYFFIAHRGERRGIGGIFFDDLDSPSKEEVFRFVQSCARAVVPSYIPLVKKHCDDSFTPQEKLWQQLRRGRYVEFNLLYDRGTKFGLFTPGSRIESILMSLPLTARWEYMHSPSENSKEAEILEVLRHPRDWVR
Test: competitive isoTOP-ABPP
Assay type: binding
Design: key: R = MS1 peak area ratio, DMSO (heavy) / compound-treated (light)
Conditions: 50 uM, 231 sol, in vitro
Observed Property: isoTOP-ABPP reactivity ratio at lysine P36551_K404

[
  {
    "Compound": "O=C(CCc1coc2cc(F)ccc2c1=O)Oc1c(F)c(F)c(F)c(F)c1F",
    "Observed Value": 1.1
  },
  {
    "Compound": "O=C(CCc1cn(-c2ccccc2)nc1-c1ccccc1)Oc1ccc([N+](=O)[O-])cc1[N+](=O)[O-]",
    "Observed Value": 18.1
  },
  {
    "Compound": "O=C(Oc1c(F)c(F)c(F)c(F)c1F)c1ccc2ccccc2n1",
    "Observed Value": 1.3
  },
  {
    "Compound": "CCn1cc(C(=O)Oc2c(F)c(F)c(F)c(F)c2F)c(=O)c2ccc(C)nc21",
    "Observed Value": 0.9
  },
  {
    "Compound": "O=C(CN1C(=O)c2ccccc2C1=O)Oc1c(F)c(F)c(F)c(F)c1F",
    "Observed Value": 1.2
  },
  {
    "Compound": "O=C(Oc1ccc([N+](=O)[O-])cc1[N+](=O)[O-])c1cc(C(F)(F)F)cc(C(F)(F)F)c1",
    "Observed Value": 1.1
  },
  {
    "Compound": "Cn1cc(CC(=O)Oc2ccc([N+](=O)[O-])cc2[N+](=O)[O-])c2ccccc21",
    "Observed Value": 1.0
  },
  {
    "Compound": "O=C(Oc1ccc([N+](=O)[O-])cc1[N+](=O)[O-])C(c1ccccc1)c1ccccc1 [fragment 30, 2,4-Dinitrophenyl 2,2-diphenylacetate]",
    "Observed Value": 1.1
  },
  {
    "Compound": "COc1cc(CCC(=O)Oc2ccc([N+](=O)[O-])cc2[N+](=O)[O-])cc(OC)c1OC",
    "Observed Value": 1.0
  },
  {
    "Compound": "O=C(Oc1c(F)c(F)c(F)c(F)c1F)C1CCN(C(=O)OCc2ccccc2)CC1",
    "Observed Value": 1.2
  }
]
